Target: T1, recombinant His-tagged human TIGIT-ECD protein (human, UniProt Q495A1 22-141)
T1 construct: extracellular domain; The ELISA text only says His-tagged human TIGIT; also called His-tagged TIGIT; human TIGIT protein; not shown: His tag
T1 sequence (looked up): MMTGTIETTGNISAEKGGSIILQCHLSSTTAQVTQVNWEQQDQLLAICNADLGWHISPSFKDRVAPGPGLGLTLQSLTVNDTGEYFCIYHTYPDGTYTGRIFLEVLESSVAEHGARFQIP
Experiment: SPR affinity ranking (Biacore T200)
Catalogue of koff readings, one per entry.
Property measured: koff (s⁻¹)

| Binder | Reported result |
| --- | --- |
| 101E1HM-3 (antibody, V domains shown) VH: QVQLQESGPGLVKPSQTLSLTCTVSGYSITDDYAWNWIRQPPGKGLEWMGYISYSGDTKYNPSLKSRVTISRDTSKNQFSLKLSSVTAADTAVYYCARKYYGGWFPVWGQGTLVTVSS VL: DIQMTQSPSSLSASVGDRVTITCKASQDVFTAVAWYQQKPGKAPKLLIYSASNRNTGVPSRFSGSGSGTDFTFTISSLQPEDFATYYCQQQYSTPWTFGQGTRLEIK | 0.000717 |
| 101E1HM-2 (antibody, V domains shown) VH: QVQLQESGPGLVKPSQTLSLTCTVSGYSITDDYAWNWIRQPPGKGLEWMGYISYSGNTMYNPSLKSRVTISRDTSKNQFSLKLSSVTAADTAVYYCARKYYGGWFPIWGQGTLVTVSS VL: DIQMTQSPSSLSASVGDRVTITCKASQDVFTAVAWYQQKPGKAPKLLIYSASYRHTGVPSRFSGSGSGTDFTFTISSLQPEDFATYYCQQSYSTPWTFGQGTRLEIK | 0.00191 |
| 101E1HM-5 (antibody, V domains shown) VH: QVQLQESGPGLVKPSQTLSLTCTVSGYSITDDYAWNWIRQPPGKGLEWMGYISYSGITRYNPSLKSRVTISRDTSKNQFSLKLSSVTAADTAVYYCARKYYGGWFPQWGQGTLVTVSS VL: DIQMTQSPSSLSASVGDRVTITCKASQDVFTAVAWYQQKPGKAPKLLIYSASYRDTGVPSRFSGSGSGTDFTFTISSLQPEDFATYYCQQSYSTPWTFGQGTRLEIK | 0.00209 |
| 101E1HM-1 (antibody, V domains shown) VH: QVQLQESGPGLVKPSQTLSLTCTVSGYSITDDYAWNWIRQPPGKGLEWMGYISYSGHTKYNPSLKSRVTISRDTSKNQFSLKLSSVTAADTAVYYCARKYYGGWFPRWGQGTLVTVSS VL: DIQMTQSPSSLSASVGDRVTITCKASQDVFTAVAWYQQKPGKAPKLLIYSASYRPTGVPSRFSGSGSGTDFTFTISSLQPEDFATYYCQQSYSTPWTFGQGTRLEIK | 0.00107 |
